Measured pIC50 on Acetylcholinesterase (Electrophorus electricus, UniProt O42275) follows.
Sequence (O42275 whole entry): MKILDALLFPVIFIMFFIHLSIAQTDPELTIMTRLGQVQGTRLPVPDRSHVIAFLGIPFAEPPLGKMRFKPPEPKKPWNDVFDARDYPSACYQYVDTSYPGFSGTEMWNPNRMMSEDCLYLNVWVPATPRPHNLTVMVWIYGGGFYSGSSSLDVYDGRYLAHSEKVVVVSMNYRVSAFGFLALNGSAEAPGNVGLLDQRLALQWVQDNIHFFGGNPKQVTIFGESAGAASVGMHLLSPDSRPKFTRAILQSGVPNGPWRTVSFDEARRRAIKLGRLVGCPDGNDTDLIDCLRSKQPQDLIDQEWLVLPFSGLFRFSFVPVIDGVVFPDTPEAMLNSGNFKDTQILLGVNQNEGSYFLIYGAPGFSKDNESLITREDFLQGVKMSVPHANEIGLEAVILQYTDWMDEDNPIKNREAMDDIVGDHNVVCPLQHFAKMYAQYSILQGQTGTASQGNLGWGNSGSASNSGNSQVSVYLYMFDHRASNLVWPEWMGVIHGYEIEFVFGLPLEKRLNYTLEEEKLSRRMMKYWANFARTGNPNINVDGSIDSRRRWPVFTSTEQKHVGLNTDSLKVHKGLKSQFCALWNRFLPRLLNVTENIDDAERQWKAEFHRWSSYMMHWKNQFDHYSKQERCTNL
pIC50: −log10 of the molar value.
Parameter measured: pIC50

Smiles repr: CCN(Cc1ccc(/C=C2\Oc3cc(OC)c(OC)cc3C2=O)cc1O)Cc1ccccc1OC
Reported: 4.43
--
Smiles repr: CCN(Cc1ccccc1)Cc1ccc(/C=C2\Oc3cc(OC)c(OC)cc3C2=O)cc1O
Reported: 4.45
--
Smiles repr: CCN(Cc1ccc(/C=C2\Oc3cc(OC)c(OC)cc3C2=O)cc1O)Cc1ccccc1N(C)C
Reported: 5.19
--
Smiles repr: COc1cc2c(cc1OC)C(=O)/C(=C/c1ccc(CN(C)Cc3ccccc3)c(O)c1)O2
Reported: 5.04
--
Smiles repr: COc1cc2c(cc1OC)C(=O)/C(=C/c1ccc(CN3CCCC3)c(O)c1)O2
Reported: 5.57
--
Smiles repr: CCN(CC)Cc1ccc(/C=C2\Oc3cc(OC)c(OC)cc3C2=O)cc1O
Reported: 6.31
--
Smiles repr: COc1cc2c(cc1OC)C(=O)/C(=C/c1cccc(O)c1)O2
Reported: 4.44
--
Smiles repr: COc1cc2c(cc1OC)C(=O)/C(=C/c1ccc(CN3CCN(C)CC3)c(O)c1)O2
Reported: 4.92
--
Smiles repr: COc1cc2c(cc1OC)C(=O)/C(=C/c1ccc(CN(C)C)c(O)c1)O2
Reported: 5.05
--
Smiles repr: COc1cc2c(cc1OC)C(=O)/C(=C/c1ccc(CN3CCCCC3)c(O)c1)O2
Reported: 7.67
--
Smiles repr: CCN1CCN(Cc2ccc(/C=C3\Oc4cc(OC)c(OC)cc4C3=O)cc2O)CC1
Reported: 4.93
--
Smiles repr: COc1cc2c(cc1OC)C(=O)/C(=C/c1ccc(CN3CCOCC3)c(O)c1)O2
Reported: 4.69
--
Smiles repr: CCN(Cc1ccc(N(C)C)cc1)Cc1ccc(/C=C2\Oc3cc(OC)c(OC)cc3C2=O)cc1O
Reported: 3.37
--
Smiles repr: COc1ccccc1CN(C)Cc1ccc(/C=C2\Oc3cc(OC)c(OC)cc3C2=O)cc1O
Reported: 4.54
--
Smiles repr: COc1cc2c(cc1OC)C(=O)/C(=C/c1ccc(O)cc1)O2
Reported: 4.19
